system tested: T1, GST-Msn2(596-704) zinc-finger domain (Saccharomyces cerevisiae, UniProt P33748 596-704)
T1 sequence: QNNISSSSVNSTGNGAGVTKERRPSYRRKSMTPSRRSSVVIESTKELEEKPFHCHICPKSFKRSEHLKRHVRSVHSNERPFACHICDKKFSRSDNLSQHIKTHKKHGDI
method: EMSA; folded in 100 mM K+; EMSA: oligos (0.1 uM) folded in 10 mM Tris-HCl pH 7.5, 100 mM KCl or LiCl; binding in 10 mM Tris-HCl pH 8.0, 1 mM DTT, 0.01% NP-40, 5% glycerol, 50 uM ZnSO4, room temperature 30 min; pull-down: 400 pmol biotin oligo folded in 100 mM KCl or LiCl, streptavidin beads, yeast whole cell lysate
measurement setup: protein: recombinant; tags: N-terminal GST (pGEX4T1); label: 5' Cy5; G4

binder: ATTCTTGGGGCTGGGGTCCCTTGGGGAACTGTATTGGGTGAACC (structured_DNA) [Cy5-ATG7 G4]
binding result: binds
//
binder: GAGCTGGGGTGAGCTGGGCTGAGCTGGGGTGAGCTGGGCTGAGCT (structured_DNA) [Cy5-SµG]
binding result: binds
//
binder: CCGCTGGGCAGGTCAGGGCAGGGGCTCTCAGGGGGGCGCCA (structured_DNA) [Cy5-TPS1pG4]
binding result: binds
